biological target: uPAR-expressing HEC-265 human endometrial adenocarcinoma cells (Homo sapiens, UniProt Q03405)
Sequence (Q03405 23-335): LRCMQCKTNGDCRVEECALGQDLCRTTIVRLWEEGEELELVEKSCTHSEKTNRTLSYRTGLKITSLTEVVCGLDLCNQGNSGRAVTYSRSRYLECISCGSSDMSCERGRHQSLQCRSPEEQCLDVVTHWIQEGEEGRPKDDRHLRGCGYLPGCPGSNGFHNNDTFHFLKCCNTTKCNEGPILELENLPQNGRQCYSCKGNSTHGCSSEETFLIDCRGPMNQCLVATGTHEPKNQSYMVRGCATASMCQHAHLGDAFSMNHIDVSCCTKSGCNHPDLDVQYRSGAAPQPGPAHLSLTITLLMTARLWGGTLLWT
Where a SMILES comes first, the peptide text is derived from it. Bridges are numbered along the chain shown (N, C = ends). [ ]: non-standard residue; d: D form. The star is where a group is joined. DOTA = O=C(O)CN1CCN(CC(=O)O)CCN(CC(=O)*)CCN(CC(=O)O)CC1; Phe(3-Cl) = N[C@@H](Cc1cccc(Cl)c1)C(=O)O; Pentanesulfonyl = CCCCCS(=O)(=O)*; Hyp = O=C(O)[C@@H]1C[C@@H](O)CN1; Pentanoyl(4-Me) = CC(C)CCC(=O)*; Tic = O=C(O)[C@@H]1Cc2ccccc2CN1; Cit = NC(=O)NCCC[C@H](N)C(=O)O; Nva = CCC[C@H](N)C(=O)O; Pentanoyl = CCCCC(=O)*; AEEA = NCCOCCOCC(=O)O
VALUE_KIND: IC50

Previously resolved entries follow.
CCCCC(=O)N[C@H]1CSSC[C@@H](C(N)=O)NC(=O)[C@H](COC)NC(=O)[C@H]([C@@H](C)CC)NC(=O)[C@@H]2C[C@@H](O)CN2C(=O)[C@@H]2CCCN2C(=O)[C@H](Cc2ccccc2)NC(=O)[C@H](Cc2ccc(O)cc2)NC(=O)[C@H](CCCCNC(=O)CN2CCN(CC(=O)O)CCN(CC(=O)O)CCN(CC(=O)O)CC2)NC(=O)[C@H](CCCNC(N)=O)NC1=O [UPAR-380] (Pentanoyl-C[Cit]K(DOTA)YFP[Hyp]IS(Me)C-NH2; disulfide 1-10) = ≤ 10 nM
CCCCCS(=O)(=O)N[C@H]1CSSC[C@@H](C(N)=O)NC(=O)[C@H](CCC)NC(=O)[C@H]([C@@H](C)CC)NC(=O)[C@@H]2C[C@@H](O)CN2C(=O)[C@@H]2CCCN2C(=O)[C@H](Cc2ccccc2)NC(=O)[C@H](Cc2ccc(O)cc2)NC(=O)[C@H](CCC(N)=O)NC(=O)[C@H](CCCNC(=N)N)NC1=O [UPAR-328] (Pentanesulfonyl-CRQYFP[Hyp]I[Nva]C-NH2; disulfide 1-10) = ≤ 10 nM
CC[C@H](C)[C@@H]1NC(=O)[C@@H](C)NC(=O)[C@@H]2CCCN2C(=O)[C@H](Cc2cccc(Cl)c2)NC(=O)[C@H](Cc2ccc(O)cc2)NC(=O)[C@H](CCC(N)=O)NC(=O)[C@H](CCCNC(N)=O)NC(=O)[C@@H](NC(=O)CCC(C)C)CSSC[C@@H](C(N)=O)NC(=O)[C@H](CC(C)C)NC1=O [UPAR-227] ({Pentanoyl(4-Me)}-C[Cit]QY[Phe(3-Cl)]P[dA]ILC-NH2; disulfide 1-10) = ≤ 10 nM
CCCCC(=O)N[C@H]1CSSC[C@@H](C(N)=O)NC(=O)[C@H](CCC)NC(=O)[C@H]([C@@H](C)CC)NC(=O)[C@@H]2C[C@@H](O)CN2C(=O)[C@@H]2CCCN2C(=O)[C@@H]2Cc3ccccc3CN2C(=O)[C@H](Cc2ccc(O)cc2)NC(=O)[C@H](CCCCNC(=O)CN2CCN(CC(=O)O)CCN(CC(=O)O)CCN(CC(=O)O)CC2)NC(=O)[C@H](CCCNC(N)=O)NC1=O [UPAR-252] (Pentanoyl-C[Cit]K(DOTA)Y[Tic]P[Hyp]I[Nva]C-NH2; disulfide 1-10) = ≥ 126 nM

Lab note: CC[C@H](C)[C@@H]1NC(=O)[C@@H](C)NC(=O)[C@@H]2CCCN2C(=O)[C@H](Cc2ccccc2)NC(=O)[C@H](Cc2ccc(O)cc2)NC(=O)[C@H](CCC(N)=O)NC(=O)[C@H](CCCNC(=N)N)NC(=O)[C@@H](NC(=O)CCC(C)C)CSSC[C@@H](C(=O)NCCOCCOCC(=O)N[C@@H](CCCCNC(=O)CN2CCN(CC(=O)O)CCN(CC(=O)O)CCN(CC(=O)O)CC2)C(N)=O)NC(=O)[C@H](CC(C)C)NC1=O [UPAR-449] ({Pentanoyl(4-Me)}-CRQYFP[dA]ILC[AEEA]K(DOTA)-NH2; disulfide 1-10) gave IC50 of ≥ 126 nM
